System: HEL
Test: cell viability (% survival relative to DMSO control, bortezomib = 0%); higher = less cytotoxic
Settings: 1 nM; 72 h
Assignment: determine reported cell viability for the given compounds.
Lab book: enter the figure in %, no units written.

Param readout = cell viability; param system = HEL; param query = OCC(CO)N[C@H]1C[C@](O)(CO)[C@@H](O)[C@H](O)[C@H]1O ; response: value 124

Request: cell viability, test system HEL, entry OCCN1C[C@H](O)[C@@H](O)[C@H](O)[C@H]1CO 107

Record CN(C)C(=N)NC(=N)N : what is its cell viability with HEL? 110

Query the reported cell viability for HEL; item: CC(C)(F)C[C@H](N[C@@H](c1ccc(-c2ccc(S(C)(=O)=O)cc2)cc1)C(F)(F)F)C(=O)NC1(C#N)CC1 104

Notebook entry, HEL assay: cell viability of CN(C)C(=O)n1nnnc1Cc1ccc(-c2ccccc2)cc1 = ? 101

API: value(readout= cell viability, system= HEL, query= c1ccc2nc(-c3nnc4sc(-c5cnccn5)nn34)ccc2c1 ) 95.3

Lab note: need cell viability with HEL for entry O=C(/C=C/c1cccnc1)NCCCCC1CCN(C(=O)c2ccccc2)CC1 , please look it up. 85.7

Give the reported cell viability for N=C(N)c1ccc(N=NNc2ccc(C(=N)N)cc2)cc1 (system: HEL). 103

I'm curious: which cell viability was measured for CC(=O)N1CCN(c2ccc(OC[C@@H]3CO[C@@](Cn4ccnc4)(c4ccc(Cl)cc4Cl)O3)cc2)CC1 (racemic) tested on HEL? 104

Record lookup: for HEL, what cell viability belongs to NS(=O)(=O)c1ccc(S(=O)(=O)Nc2cccc3c(Cl)c[nH]c23)cc1 ? 103

Query cell viability on HEL for CN(C)CCNC(=O)c1cccn2c(=O)c3cc4ccccc4cc3nc12 110

Fill in the recorded cell viability for this compound, with HEL as test system: CC(C)(CCCCCCCCCCC(C)(C)CC(=O)O)CC(=O)O 116

Query for HEL: what cell viability does the record show for CC(C)(O)CNc1nc(Nc2ccnc(C(F)(F)F)c2)nc(-c2cccc(C(F)(F)F)n2)n1 ? 106

---

Test system: BV-173
Experiment: cell viability (% survival relative to DMSO control, bortezomib = 0%); higher = less cytotoxic
Details: 10000 nM; 72 h
Quick rule for you: cell viability under 40% gets met, anything else gets not met.

Decide: cell viability of Cl.NC1=CCCN1Cc1nc(O)nc(O)c1Cl [Tipiracil] strictly below 40%? not met

Threshold test, cell viability < 40%: C=C1NC(=O)c2cc(CN(C)c3ccc(C(=O)N[C@@H](CCC(=O)O)C(=O)O)s3)ccc2N1 [Raltitrexed] met

Hi there! Is cell viability for O=C(Oc1cccc(F)c1OC(=O)c1cccc(O)c1)c1cccc(O)c1 [WZB117] below 40%, do you know? met

Hi there! Is cell viability for CC(C)(F)C[C@H](N[C@@H](c1ccc(-c2ccc(S(C)(=O)=O)cc2)cc1)C(F)(F)F)C(=O)NC1(C#N)CC1 [Odanacatib] below 40%, do you know? not met

I'd appreciate it if you could check whether CC(C)(O)CNc1nc(Nc2ccnc(C(F)(F)F)c2)nc(-c2cccc(C(F)(F)F)n2)n1 [Enasidenib] has cell viability smaller than 40%. not met

Hello, I'm reviewing records and need to know if cell viability of CCCC(CCC)C(=O)O [Valproic acid] is below 40%. Could you check? not met

Check if cell viability falls below 40% for Fc1ccc(CNc2ncnc3ccc(F)cc23)cc1 [Spautin 1] . met

I'd appreciate it if you could check whether OCCN(CCO)c1nc(N2CCCCC2)c2nc(N(CCO)CCO)nc(N3CCCCC3)c2n1 [Dipyridamole] has cell viability smaller than 40%. met

For NCc1ccc(S(N)(=O)=O)cc1 [4-Homosulfanilamide] , is the recorded cell viability below the cut-off of 40%? not met
